- SYSTEM_TESTED: FPR2 (Homo sapiens)
- Construct: expressed in transfected cells; host or cells: CHO-Ga16 cells stably expressing FPR2
- Sequence (P25090 whole entry): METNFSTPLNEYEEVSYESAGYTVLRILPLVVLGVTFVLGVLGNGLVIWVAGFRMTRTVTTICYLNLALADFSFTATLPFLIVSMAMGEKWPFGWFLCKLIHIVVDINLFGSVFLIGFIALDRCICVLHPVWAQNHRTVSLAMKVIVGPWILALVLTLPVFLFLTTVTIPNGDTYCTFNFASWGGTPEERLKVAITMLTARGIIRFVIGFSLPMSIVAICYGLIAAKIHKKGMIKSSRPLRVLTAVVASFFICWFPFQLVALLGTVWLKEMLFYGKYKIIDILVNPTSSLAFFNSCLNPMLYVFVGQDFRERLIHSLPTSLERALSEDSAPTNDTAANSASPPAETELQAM
- ASSAY_EXPLANATION: compound-induced calcium activity on FLIPR Tetra in CHO-Ga16 cells stably expressing FPR2
- Format: cell-based
- ASSAY_SETUP: CHO-Ga16 cells stably expressing FPR2; calcium activity, FLIPR Tetra; concentrations 0.61 to 10,000 nM
pEC50: −log10 of the molar value.
Recorded measurements of pEC50, one per entry
OBSERVATION_TYPE: pEC50

MOLECULE	OBSERVED_VALUE
CC(C)C[C@H](NC(=O)Nc1ccc(C(F)(F)F)cc1)C(=O)NCc1nnn[nH]1 [Compound 12]	8.40
CCOP(=O)(CNC(=O)[C@H](CC(C)C)NC(=O)Nc1ccc(SC)cc1)OCC [Compound 14]	8.68
CC(C)C[C@H](NC(=O)Nc1ccc(Br)cc1)C(=O)NCS(=O)(=O)O	8.64
CCOP(=O)(O)CNC(=O)[C@H](CC(C)C)NC(=O)Nc1ccc(C(F)(F)F)cc1 [Compound 20]	8.70
CCOP(=O)(O)CNC(=O)[C@H](CC(C)C)NC(=O)Nc1ccc(S(C)(=O)=O)cc1 [Compound 21]	6.88
CCOP(=O)(CNC(=O)[C@H](Cc1ccccc1)NC(=O)Nc1ccc(Br)cc1)OCC [Compound 7]	7.70
CCCC(NC(=O)Nc1ccc(Br)cc1)C(=O)NCP(=O)(O)OC(C)C (centres unmarked) [Compound 19]	8.73
CCOP(=O)(CCNC(=O)[C@H](CC(C)C)NC(=O)Nc1ccc(Br)cc1)OCC [Compound 8]	8.74
CCOP(=O)(O)CNC(=O)[C@@H](NC(=O)Nc1ccc(Br)cc1)[C@@H](C)CC [Compound 16]	8.49
CC(C)C[C@H](NC(=O)Nc1ccc(Br)cc1)C(=O)NCc1nnn[nH]1 [Compound 2]	8.64
CCC[C@H](NC(=O)Nc1ccc(Br)cc1)C(=O)NCP(=O)(OCC)OCC [Compound 6]	9.54
CCOP(=O)(CNC(=O)[C@H](CC(C)C)NC(=O)Nc1ccc(C(F)(F)F)cc1)OCC [Compound 11]	8.10
CCOP(=O)(CNC(=O)[C@H](CC(C)C)NC(=O)Nc1ccc(S(C)(=O)=O)cc1)OCC [Compound 24]	7.35
CCC[C@H](NC(=O)Nc1ccc(Br)cc1)C(=O)NCP(=O)(OC(C)C)OC(C)C [Compound 9]	9.10
CC(C)C[C@H](NC(=O)Nc1ccc(C(F)(F)F)cc1)C(=O)NCS(=O)(=O)O [Compound 13]	8.80
CC(C)C[C@H](NC(=O)Nc1ccc(Br)cc1)C(=O)NCc1cc(O)no1 [Compound 4]	7.92
CC(C)C[C@H](NC(=O)Nc1ccc(C(F)(F)F)cc1)C(=O)NCP(=O)(O)O [Compound 23]	7.19
